test: chemical genetic growth profiling, strain panel (AID 1159580);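 note: tested at 20 µM; growth read once vehicle control cultures reached saturation at 30 °C; 1 = growth at the plate median or of vehicle wells; lower values mean less growth of the strain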; details: S. cerevisiae deletion strains, growth OD, locus YOR265W, strain rbl2, active compounds read low
Screen size: about 5,500 compounds; about 2,000 (36%) were called active. Roughly 18% stayed inconclusive and do not appear here. The list shows a part of the results.
recorded_endpoint: normalized growth

• c1ccc2c(c1)CN1CCCC1=N2 = 1.01
• O=c1cc(-c2ccccc2)oc2cc(O)c(O)cc12 = 0.95
• Nc1cc(C(Cl)=C(Cl)Cl)c(S(N)(=O)=O)cc1S(N)(=O)=O = 1.01
• NC(N)=O = 1.02
• O=c1cc(-c2ccccc2)oc2cccc(O)c12 = 0.954
• CNC(=O)Oc1ccc2c(c1)[C@]1(C)CCN(C)[C@@H]1N2C = 1.01
• CCCCCC1C(=O)CCC1CC(=O)OC (stereo not drawn) = 0.981
• CN(C)N=Nc1nc[nH]c1C(N)=O = 0.977
• CCOC(=O)[C@H](CCc1ccccc1)N[C@@H](C)C(=O)N1Cc2ccccc2C[C@H]1C(=O)O = 1.02
• C=C1C2=CC(=O)O[C@@H](c3ccoc3)[C@]2(C)CCC1[C@@]1(C)C=CC(=O)C(C)(C)[C@@H]1CC(=O)OC (stereo partly drawn) = 0.984
• Nc1ccn(C2O[C@H](CO)[C@@H](O)[C@H]2O)c(=O)n1 (stereo partly drawn) = 0.988
• O=[N+]([O-])c1cccc2c(Br)[nH]nc12 = 0.982
• N[C@H](Cc1ccccc1)C(=O)O = 0.992
• CN(CCC(N)CC(=O)N[C@H]1C=CC(n2ccc(N)nc2=O)O[C@@H]1C(=O)O)C(=N)N (stereo partly drawn) = 0.966
• O=C(O)CCC(=O)Nc1ccc(S(=O)(=O)Nc2nccs2)cc1 = 1.01
• CCCCC[C@H](CC(=O)NO)C(=O)N[C@H](C(=O)N1CCC[C@H]1CO)C(C)C = 1.01
• O=c1cc(-c2cc(O)c(O)c(O)c2)oc2cc(O)cc(O)c12 = 0.99
• C=C1[C@H]2CC[C@@]3(C)[C@H](c4ccoc4)OC(=O)C[C@]13O[C@H]1C[C@H](O)C(C)(C)[C@H](CC(=O)OC)[C@]12C = 1
• NC(Cc1ccc(F)cc1)C(=O)O (stereo not drawn) = 1.01
• C/C=C/C(=O)N(CC)c1ccccc1C = 1
• CCCC(CCC)C(=O)O = 1.01
• CCN(CC)C(C)CN1c2ccccc2Sc2ccccc21 (stereo not drawn) = 0.986
• C=C1C(C2(C)C=CC(=O)C(C)(C)C2CC(=O)OC)CC[C@@]2(C)[C@H](c3ccoc3)OC(=O)C3OC132 (stereo partly drawn) = 0.991
• NC(=O)c1ncn(C2O[C@H](CO)[C@@H](O)[C@H]2O)c1N (stereo partly drawn) = 1.04
• O=c1[nH]cnc2[nH]ncc12 = 1.01
• COc1cc([C@H]2Oc3cc([C@H]4Oc5cc(O)cc(O)c5C(=O)[C@@H]4O)ccc3O[C@@H]2CO)ccc1O = 1.01
• COc1cc(C)c(C(=O)Oc2cc(C)c(C(=O)O)c(O)c2C)c(OC)c1C = 0.992
• CO[C@]12C[C@@H](COC(=O)c3cncc(Br)c3)CN(C)[C@@H]1Cc1cn(C)c3cccc2c13 = 0.987
• Cc1nc2ccccn2c(=O)c1CCN1CCC(C(=O)c2ccc(F)cc2)CC1 = 0.989
• CC(CN(C)C)CN1c2ccccc2CCc2ccccc21 (stereo not drawn) = 0.97
• O=C(O)c1ccccc1C(=O)Nc1ccc(S(=O)(=O)Nc2nccs2)cc1 = 0.99
• COc1cc(S(C)=O)ccc1-c1nc2ncccc2[nH]1 (stereo not drawn) = 0.967
• CC(=O)OCC(=O)[C@@]1(O)[C@H](OC(C)=O)CC2C3CCC4=CC(=O)C=C[C@]4(C)[C@@]3(F)[C@@H](O)C[C@@]21C (stereo partly drawn) = 0.982
• O=C(Nc1ccccc1)Nc1ccccc1 = 0.964
• C=C1C2CCC3(C)C(c4ccoc4)OC(=O)CC13OC1CC(OC(C)=O)C(C)(C)C(CC(=O)OC)C12C (stereo not drawn) = 1.01
• CN(C)CCC(c1ccc(Br)cc1)c1ccccn1 (stereo not drawn) = 0.99
• Cc1cc(O)c(C=O)c2c1C(=O)Oc1c(COC(=O)/C=C/C(=O)O)c(O)c(C(=O)O)c(C)c1O2 = 0.964
• CC(=O)N=c1sc(S(N)(=O)=O)nn1C = 1.01
• CSc1ccc2c(c1)N(CCC1CCCCN1C)c1ccccc1S2 (stereo not drawn) = 0.961
• CC(=O)Nc1nnc(S(N)(=O)=O)s1 = 1.01
• COc1ccc(C(=O)N2CCCC2=O)cc1 = 0.989
• CN[C@@H]1[C@H](OC2[C@H](O[C@H]3[C@H](O)[C@@H](O)[C@H](N=C(N)N)[C@@H](O)[C@@H]3N=C(N)N)O[C@@H](C)[C@]2(O)C=O)O[C@@H](CO)[C@H](O)[C@H]1O (stereo partly drawn) = 1.01
• C=C1C2CC[C@@]3(C)[C@H](c4ccoc4)OC(=O)C[C@]13O[C@H]1CC(=O)C(C)(C)C(CC(=O)OC)[C@@]21C (stereo partly drawn) = 1

Source of measurements: PubChem BioAssay AID1159580
